Data provenance: paper PMC7507342

- System: M. luteus
- run-description: MIC determination in 96-well plates
- Format: cell-based, Micrococcus luteus
- recorded-conditions: 96-well plate, bioassay medium, 5.0 × 10^5 CFU mL^−1, 37 °C, 24 h, OD600; mixture of dehydration molecules quantified as eight-fold dehydrated molecules; n=3
Non-standard residues stand in square brackets, D forms with d. No end group written: not given here. Dhb = C/C=C(\N)C(=O)O; Dha = C=C(N)C(=O)O
measure-name: MIC M. luteus
Don't forget the unit after the value.

VT SKSLC TPGCKTGILQT CAIKSAT CGC SIHIGK (bicyclic or more) [RL8, novel lanthipeptide, nisin analog, core peptide from Bacillus cereus] ... 0.24 µg/mL
IT SKSLC TPGCKTGALMT CPIKTAT CGCHFGN (bicyclic or more) [RL13, novel lanthipeptide, nisin analog, core peptide from Streptococcus equinus] ... 0.24 µg/mL
Nisin Z: type I lanthipeptide nisin Z, synthesized by CFPS or from mLanA expressed in E. coli (I[Dhb]SI[Dha]LCTPGCKTGALMGCNMKTATCNCSIHV[Dha]K; cysteine pairing not given here; also: lanthipeptide thioether crosslinks and dehydrated residues, positions not given here; UniProt P29559 24-57, looked up) [reference compound] ... 0.12 µg/mL
IT SVSLC TPGCKTGALMGCNMKTAS CGCHVHVSK (bicyclic or more) [RL6, novel lanthipeptide, nisin analog, core peptide from Leuconostoc gelidum] ... 0.12 µg/mL

Please give measured MIC M. luteus of the following entry: Nisin A: commercialized nisin, class I lanthipeptide, food preservative (I[Dhb]SI[Dha]LCTPGCKTGALMGCNMKTATCHCSIHV[Dha]K; cysteine pairing not given here; also: lanthipeptide thioether crosslinks and dehydrated residues, positions not given here; UniProt P13068 24-57, looked up) [reference compound]
0.06 µg/mL

Indicate the recorded MIC M. luteus value for this substance: IT SKSLC TPGCVTGVLMGCALKTIT CNC SVGIGKK (bicyclic or more) [RL14, novel lanthipeptide, nisin analog, core peptide from Enterococcus rotai/Enterococcus moraviensis]
0.015 µg/mL

###

- Test system: M. luteus
- run-description: MIC determination in 96-well plates
- Assay type: cell-based, Micrococcus luteus
- recorded-conditions: value in parentheses; 96-well plate, bioassay medium, 5.0 × 10^5 CFU mL^−1, 37 °C, 24 h, OD600; quantified as eight-fold dehydrated molecules; n=3
measure-name: MIC M. luteus (µM)
The reply should be a number in µM, with the unit left off.

For the substance VT SKSLC TPGCKTGILQT CAIKSAT CGC SIHIGK (bicyclic or more) [RL8, novel lanthipeptide, nisin analog, core peptide from Bacillus cereus] , give its measured MIC M. luteus value.
0.073

###

Examples of substances with documented MIC M. luteus follow.
- Test system: M. luteus
- run-description: MIC determination in 96-well plates
- Type: cell-based, Micrococcus luteus
- recorded-conditions: value in parentheses; 96-well plate, bioassay medium, 5.0 × 10^5 CFU mL^−1, 37 °C, 24 h, OD600; quantified as eight-fold dehydrated molecules; n=3
Non-standard residues stand in square brackets, D forms with d. No end group written: not given here. Dhb = C/C=C(\N)C(=O)O; Dha = C=C(N)C(=O)O
Numeric answer only, unit µM assumed.

Nisin A: commercialized nisin, class I lanthipeptide, food preservative (I[Dhb]SI[Dha]LCTPGCKTGALMGCNMKTATCHCSIHV[Dha]K; cysteine pairing not given here; also: lanthipeptide thioether crosslinks and dehydrated residues, positions not given here; UniProt P13068 24-57, looked up) [reference compound] ... 0.018

Answer with the recorded MIC M. luteus of IT SKSLC TPGCKTGALMT CPIKTAT CGCHFGN (bicyclic or more) [RL13, novel lanthipeptide, nisin analog, core peptide from Streptococcus equinus] only.
0.077

Please look at this substance and report its MIC M. luteus: IT SKSLC TPGCVTGVLMGCALKTIT CNC SVGIGKK (bicyclic or more) [RL14, novel lanthipeptide, nisin analog, core peptide from Enterococcus rotai/Enterococcus moraviensis]
0.0045

Identify MIC M. luteus associated with the substance IT SVSLC TPGCKTGALMGCNMKTAS CGCHVHVSK (bicyclic or more) [RL6, novel lanthipeptide, nisin analog, core peptide from Leuconostoc gelidum]
0.037

Given Nisin Z: type I lanthipeptide nisin Z, synthesized by CFPS or from mLanA expressed in E. coli (I[Dhb]SI[Dha]LCTPGCKTGALMGCNMKTATCNCSIHV[Dha]K; cysteine pairing not given here; also: lanthipeptide thioether crosslinks and dehydrated residues, positions not given here; UniProt P29559 24-57, looked up) [reference compound] , respond with its MIC M. luteus.
0.036
